experiment: Mammalian cytotoxicity, MTT colorimetric method; assay type: cell-based, murine; settings: mouse, NCTC clone 929 fibroblast cells, up to 200 μM, read-out: CC50 (µM) ± SD NCTC
MEASURED_QUANTITY: CC50 (µM)
Numeric only. Scale: µM

// sample CCCCCCCCCCCCCCCCOP(=O)([O-])OCC[N+](C)(C)C [Miltefosine, reference compound] , its CC50 was 120
